Test system: coaggregation of Actinomyces naeslundii PK29 and Streptococcus sanguis G9B (β-galactose-specific binding proteins on A. naeslundii)
Assay remarks: Bacterial coaggregation assay (A. naeslundii PK29 with S. sanguis G9B)
Assay type: cell-based
Property: inhibition of β-galactose-specific coaggregation (in words)

1. CCCCCCCCCCN[C@@H]1O[C@H](CO)[C@@H](O[C@@H]2O[C@H](CO)[C@H](O)[C@H](O)[C@H]2O)[C@H](O)[C@H]1O :: effective inhibitors
2. CCCCCCCN[C@@H]1O[C@H](CO)[C@@H](O[C@@H]2O[C@H](CO)[C@H](O)[C@H](O)[C@H]2O)[C@H](O)[C@H]1O :: effective inhibitors
3. CCCCCCCN[C@@H]1O[C@H](CO)[C@H](O)[C@H](O)[C@H]1O :: effective inhibitors
